- system.name: Human SARS-CoV-2_Wuhan S (SmT1) (SARS-CoV-2 (Wuhan), UniProt P0DTC2 14-1208)
- procedure.text: tandem SPR, immobilized S, orientation 1: VHH alone
readout: End 1st inj (RU)
Respond with the bare value in RU.

May I ask what End 1st inj (RU) has been recorded for NRCoV2-04 VHH (VHH) VHH: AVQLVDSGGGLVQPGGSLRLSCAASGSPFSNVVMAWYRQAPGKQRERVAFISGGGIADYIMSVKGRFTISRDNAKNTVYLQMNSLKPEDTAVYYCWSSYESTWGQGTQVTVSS ?
41.4

May I ask what End 1st inj (RU) has been recorded for NRCoV2-SR02 VHH (VHH) VHH: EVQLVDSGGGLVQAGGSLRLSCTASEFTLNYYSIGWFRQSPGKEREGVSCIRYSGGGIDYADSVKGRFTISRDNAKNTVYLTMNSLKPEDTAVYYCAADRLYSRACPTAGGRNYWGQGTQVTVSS ?
10.3

May I ask what End 1st inj (RU) has been recorded for NRCoV2-03 VHH (VHH) VHH: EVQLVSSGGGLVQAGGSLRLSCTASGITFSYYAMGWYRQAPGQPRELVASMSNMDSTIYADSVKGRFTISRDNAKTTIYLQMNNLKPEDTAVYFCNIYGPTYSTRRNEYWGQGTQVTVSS ?
18.1

May I ask what End 1st inj (RU) has been recorded for NRCoV2-02 VHH (VHH) VHH: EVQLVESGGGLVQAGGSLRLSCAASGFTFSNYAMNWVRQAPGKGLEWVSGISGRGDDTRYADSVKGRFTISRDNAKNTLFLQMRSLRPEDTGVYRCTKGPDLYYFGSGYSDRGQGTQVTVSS ?
33

Data origin: patent US20240270826A1
